Hey, just so you know, these numbers are from patent US20250027068.

# assayed-target: pooled human IgG (human IgG1,2,3 and 4)
recorded-endpoint: Enzyme activity endpoint: scIgG (ng/µL)
# unit: ng/µL | format: bare number

Look over these answered cases.
# protein, recorded-endpoint, unit-spec, quantitative-result
rows = [
    ("PRT-628 (protein) MQITSVWTKGVTPLTPEQFRYNNEDVIHAPYLAHQGWYDITKAFDGKDNLLCGAATAGNMLHWWFDQNKEEIEAYLKKHPEKQKIIFNNQELFDLKAAIDTKDSQTNSQLFNYFRDKAFPNLSARQLGVMPDLVLDMFINGYYLNVFKTQSTDVNRPYQDKDKRGGIFDAVFTRGDQTTLLTARHDLKNKGLNDISTIIKQELTEGRALALSHTYANVSISHVINLWGADFNAEGNLEAIYVTDSDANASIGMKKYFVGINAHGHVAISAKKIEGENIGAQVLGLFTLSSGQDIWQQLSLEHHHHHH", "Enzyme activity endpoint: scIgG", "ng/µL", 0),
    ("PRT-557 (protein) MANQEIRYSEEDGKTITSVWTKGVTPPTDFQKNEDVYHAPYVANQGWYDITKTFNGKDDLLCGAATAGNMLHWWFDQNKEEIERYLKKHPEKQKINFNGEQMFDVKEAIDTKDSQTDSALFEYFKDKAFPYLSTKHLGVFPDHVIDMFINGYRLSLTNHGPTPVKDGTKDPRGGIFDAVFTRGDQTKLLTERHDFKEKTLNEISDLIKQELQEGKALGLSHTYANVRINHVINLWGADFDSEGNLEAIYVTDSDSNASIGMKKYYVGVNSAGKVAISAKEIEDDNIGAQVLGLFTLSTGKDIWEQTNLEHHHHHH", "Enzyme activity endpoint: scIgG", "ng/µL", 194),
    ("PRT-695 (protein) MTITTVWTKGVTPPTPEDFRYNNEDVLHAPYVPNQGWYDITKTFDGKDNLLCGAATAGNMLHWWFDQNKEEIERYLKKYPEKQKIIFNNQELFDVRAAINTKDSQTNSKLFNYFRDKAFPNLSARQLGVMPDLVLDMFINGYYLNLGKTQSTDVNRPYQDRDKRGGIFDAVFNRGDQTTLLTARHDLKNKGLNEISDLIKQELSSGKALALSHTYANVRINHVINLWGADFDAEGNLIAIYVTDSDANASIGMKKYYVGVNANGKVAISAKKIEGDNIGAQVLGLFTLSTGQDIWQKLSLEHHHHHH", "Enzyme activity endpoint: scIgG", "ng/µL", 0),
]

Entry PRT-674 (protein) MQITSVWTKGVTPPTMEQFRYNNYDVFHAPYLPGQGWYDITKAFDGGDNLLCGAATAGNMLHWWFDQNKEEIEAYLSKYPEKQKIIFNNQELFDLRKAINSKDSQTNSELFNYFRDKAFGNLSARQKGVMPDLVLDMFINGYYLNLNKTQSTDVNRPYQDPDKRGGIFDDVFKEGDQTKLLTARHDLSNGGLDDISTIIKQELQSGRALALSHTYANVSYSHVINLWGADFDAEGNLEAIYVTDSDDDQSIGMKKYKVGKNASGHVRISAKKIEDENIGAQVLGLFTLSLGKEIWQKLSLEHHHHHH : reported Enzyme activity endpoint: scIgG = ?
12
